B1: TPR 5TU (parent)
chain: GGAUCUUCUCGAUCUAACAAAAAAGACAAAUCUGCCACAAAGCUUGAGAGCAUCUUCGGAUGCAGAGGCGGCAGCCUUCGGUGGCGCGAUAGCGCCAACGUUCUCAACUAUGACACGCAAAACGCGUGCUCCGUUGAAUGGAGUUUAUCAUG

variants of: B1; test: polymerase ribozyme fitness, log enrichment relative to wild type (log ratio); higher = more active; in vitro selection for triplet polymerase activity
Fewer inactive variants are shown than the library holds.
Listed below: polymerase ribozyme fitness (log ratio) values for each entry.

Variant code: C10A G42C U44A U53A C85A A122C
polymerase ribozyme fitness (log ratio): ≤ -4.2

Variant code: U53A G88C
polymerase ribozyme fitness (log ratio): ≤ -4.2

Variant code: G67A U78G G86U C99U G141A
polymerase ribozyme fitness (log ratio): ≤ -4.2
